Hello, the source for this data is the supplement of paper PMC13380429, in case you need it.

Test system: Caco-2
Test: cell viability relative to DMSO; higher = less toxic
Details: 72 h; 1000 nM
Counter-ions that a name gives are not always drawn.
Listed here: items and their measured cell viability.

compound: Cc1cc(C)c2c(c1)[C@@H](N(Cc1cc(C(F)(F)F)cc(C(F)(F)F)c1)c1nnn(C)n1)CCCN2C[C@H]1CC[C@H](C(=O)O)CC1
assayed-system: Caco-2
cell viability: 99.8%
//
compound: Cc1cc(C)c2nc(-c3ccccn3)cc(C(=O)Nc3ccc(S(=O)(=O)Nc4onc(C)c4C)cc3)c2c1
assayed-system: Caco-2
cell viability: 83.7%
//
compound: CC/C(=C(\c1ccc(O)cc1)c1ccc(OCCNC)cc1)c1ccccc1 [Endoxifen HCl]
assayed-system: Caco-2
cell viability: 105%
//
compound: CN1CCN(c2c(F)cc3c(=O)c(C(=O)O)cn4c3c2SCC4)CC1
assayed-system: Caco-2
cell viability: 91.7%
//
compound: O=C1NCC2(CCN(CCc3ccccc3)CC2)O1 [fenspiride]
assayed-system: Caco-2
cell viability: 101%
//
compound: COc1ccc(-n2c(C)c([N+](=O)[O-])c3ccc(O)cc32)cc1
assayed-system: Caco-2
cell viability: 92.2%
//
compound: CC(=O)/N=c1/[nH]c(C)c(-c2ccc(Cl)c(S(=O)(=O)NCCO)c2)s1
assayed-system: Caco-2
cell viability: 93.5%
//
compound: COc1ccc2c(Oc3ccc(NC(=O)c4c(C)n(CC(C)(C)O)n(-c5ccccc5)c4=O)nc3)ccnc2c1
assayed-system: Caco-2
cell viability: 95.9%

====

Listed here: items and their measured cell viability.
Tested on: U2OS
Assay: cell viability relative to DMSO; higher = less toxic
Details: 72 h; 1 nM
measured-endpoint: cell viability

molecule: O=S(=O)(c1cccc2c(Cl)cccc12)N1CCCNCC1
measured-endpoint: cell viability
reported: 95.5%

molecule: CCOc1ccc(Cc2cc([C@]34OC[C@](CO)(O3)[C@@H](O)[C@H](O)[C@H]4O)ccc2Cl)cc1
measured-endpoint: cell viability
reported: 101%

molecule: COC1=C2C[C@@H](C)C[C@H](OC)[C@H](O)[C@@H](C)/C=C(\C)[C@H](OC(N)=O)[C@@H](OC)/C=C\C=C(/C)C(=O)NC(=CC1=O)C2=O
measured-endpoint: cell viability
reported: 100%

molecule: CCCNC(C)C(=O)Nc1ccccc1C (centres undefined)
measured-endpoint: cell viability
reported: 100%

====

Test system: Caco-2
Test: drug sensitivity score (DSS) for viability; higher = more toxic; extreme values may be limits of the assay
Conditions: 72 h
Listed here: items and their measured drug sensitivity score.

compound: N=C(N)c1ccc(/N=N/Nc2ccc(C(=N)N)cc2)cc1 [diminazene-aceturate]
drug sensitivity score: 1.9
--
compound: Cc1c[nH]c2ncnc(N3CCC(CN)(C(=O)Nc4cccc(OC(=O)N(C)C)c4)CC3)c12
drug sensitivity score: 0.9
--
compound: O=C(O)CCCc1c[nH]c2ccccc12
drug sensitivity score: 1.2
--
compound: C[C@H](NC(=O)[C@@H](O)c1cc(F)cc(F)c1)C(=O)N[C@@H]1C(=O)N(C)c2ccccc2-c2ccccc21
drug sensitivity score: 0
--
compound: c1cc2c(cc1[C@H]1OC[C@H]3[C@@H]1CO[C@@H]3c1ccc3c(c1)OCO3)OCO2
drug sensitivity score: 0
--
compound: COc1cccc(OC)c1-c1ccc(C[C@H](NC(=O)c2c(Cl)cccc2Cl)C(=O)O)cc1
drug sensitivity score: 0
--
compound: CCCN(CCC)[C@@H]1CCc2c(OC)cccc2[C@@H]1C [UH-232-(+)]
drug sensitivity score: 0
--
compound: OC[C@H]1O[C@@H](c2ccc(F)c(Cc3cc4ccccc4s3)c2)[C@H](O)[C@@H](O)[C@@H]1O
drug sensitivity score: 0
--
compound: CC(C)NCCCn1c(Sc2cc3c(cc2I)OCO3)nc2c(N)ncnc21
drug sensitivity score: 6.2
--
compound: C[C@]12CC[C@H](O)CC1=CC[C@@H]1[C@@H]2CC[C@]2(C)C(=O)CC[C@@H]12
drug sensitivity score: 0

====

System: Vero E6
Test: cell viability relative to DMSO; higher = less toxic
Conditions: 72 h; 10000 nM

molecule: OC[C@H]1O[C@@H](c2ccc(F)c(Cc3cc4ccccc4s3)c2)[C@H](O)[C@@H](O)[C@@H]1O
assayed-system: Vero E6
readout-units: %
cell viability: 103
//
molecule: C#C[C@]1(O)CC[C@H]2[C@@H]3CCc4cc(O)ccc4[C@H]3CC[C@@]21C
assayed-system: Vero E6
readout-units: %
cell viability: 102
//
molecule: N#CC(Cc1ccc(O)cc1)c1ccc(O)cc1 (stereo not drawn)
assayed-system: Vero E6
readout-units: %
cell viability: 94.8
//
molecule: O=C(O)c1ccc(Nc2ncc3c(n2)-c2ccc(Cl)cc2C(c2c(F)cccc2F)=NC3)cc1
assayed-system: Vero E6
readout-units: %
cell viability: 82.7
//
molecule: C=C[C@]1(C)CC[C@@H](C(=C)C)C[C@H]1C(=C)C
assayed-system: Vero E6
readout-units: %
cell viability: 96.6
//
molecule: O=C1OC(CN2CCOCC2)CN1/N=C/c1ccc([N+](=O)[O-])o1 (stereo not drawn)
assayed-system: Vero E6
readout-units: %
cell viability: 102
//
molecule: Cc1ccc2c(c1)C1(CCN(CCc3nc(-c4ccccc4)oc3C)CC1)OC(=O)N2
assayed-system: Vero E6
readout-units: %
cell viability: 74.1
//
molecule: Nc1ccc(-c2ccc3ncc4ccc(=O)n(-c5cccc(C(F)(F)F)c5)c4c3c2)cn1
assayed-system: Vero E6
readout-units: %
cell viability: 11.5

====

System: Vero E6
Experiment: cell viability relative to DMSO; higher = less toxic
Conditions: 72 h; 1 nM
measured-endpoint: cell viability (%)

compound: NC(=O)c1cccc(-c2cc(Nc3ccc(OC(F)(F)F)cc3)ncn2)c1 [GNF-2]
assayed-system: Vero E6
readout-units: %
reported: 104
//
compound: CO[C@H]1CC[C@H](N2C(=O)CNc3ncc(-c4ccc(C(C)(C)O)nc4)nc32)CC1 [CC-223]
assayed-system: Vero E6
readout-units: %
reported: 110
//
compound: CC(C)C[C@@H](C=O)NC(=O)[C@H](CC(C)C)NC(=O)[C@H](CC(C)C)NC(=O)OCc1ccccc1 [MG-132]
assayed-system: Vero E6
readout-units: %
reported: 93.1
//
compound: CC(C)NCCCn1c(Sc2cc3c(cc2I)OCO3)nc2c(N)ncnc21 [PU-H71]
assayed-system: Vero E6
readout-units: %
reported: 102
//
compound: C=C1/C(=C\C=C2/CCC[C@]3(C)[C@@H]([C@H](C)/C=C/[C@H](C)C(C)C)CC[C@@H]23)C[C@@H](O)C[C@@H]1O [doxercalciferol]
assayed-system: Vero E6
readout-units: %
reported: 97.7
//
compound: C[C@H](NC(=O)Cc1cc(F)cc(F)c1)C(=O)N[C@@H]1C(=O)N(C)c2ccccc2-c2ccccc21
assayed-system: Vero E6
readout-units: %
reported: 100
//
compound: Cc1n[nH]c(C)c1Cc1sc2c(c1C(=O)N1C[C@H](O)CO1)c(=O)n(C)c(=O)n2CC(C)C
assayed-system: Vero E6
readout-units: %
reported: 89.7
//
compound: O=C(/C=C\n1cnc(-c2cc(C(F)(F)F)cc(C(F)(F)F)c2)n1)N1CC(F)(F)C1 [KPT-276]
assayed-system: Vero E6
readout-units: %
reported: 93.5
//
compound: NCCOB(c1ccccc1)c1ccccc1 [2-APB]
assayed-system: Vero E6
readout-units: %
reported: 110
//
compound: CC(=O)OCC(=O)[C@@]1(O)CC[C@H]2[C@@H]3CCC4=CC(=O)CC[C@]4(C)[C@H]3[C@@H](O)C[C@@]21C [hydrocortisone-acetate]
assayed-system: Vero E6
readout-units: %
reported: 95.7
//
compound: O=C1NC(c2ccccc2)(c2ccccc2)C(=O)N1COP(=O)(O)O [fosphenytoin]
assayed-system: Vero E6
readout-units: %
reported: 110
//
compound: C/N=C(/NC#N)NCCSCc1csc(NC(=N)N)n1 [tiotidine]
assayed-system: Vero E6
readout-units: %
reported: 91.5
//
compound: CCCN(CCC)[C@H]1CCc2cccc(O)c2C1 [8-hydroxy-DPAT]
assayed-system: Vero E6
readout-units: %
reported: 97
//
compound: Cc1ncc(CO)c(/C=N/NC(=O)c2ccncc2)c1O [pyridoxal-isonicotinoyl-hydrazone]
assayed-system: Vero E6
readout-units: %
reported: 100
//
compound: CC(C)C(=O)c1ccc(O)c(O)c1 [U-0521]
assayed-system: Vero E6
readout-units: %
reported: 108
//
compound: CC(C)c1cc(CNc2nc(Nc3cc(C4CC4)[nH]n3)cc(N3CCN(C)CC3)n2)on1 [XL228]
assayed-system: Vero E6
readout-units: %
reported: 94
//
compound: CCCc1ccc(C(=O)O)cc1 [4-propylbenzoic-acid]
assayed-system: Vero E6
readout-units: %
reported: 93.2
//
compound: CSc1nc(NC2CCCC2)c([N+](=O)[O-])c(NC2CCCC2)n1
assayed-system: Vero E6
readout-units: %
reported: 110
//
compound: Nc1nc2ccc(Cl)cc2c2nc(-c3ccco3)nn12
assayed-system: Vero E6
readout-units: %
reported: 96.1
//
compound: C=C(c1ccccc1OCc1cccc(Cl)c1)n1ccnc1 [croconazole]
assayed-system: Vero E6
readout-units: %
reported: 102
//
compound: O=C1C(O)=C([C@H]2CC[C@H](c3ccc(Cl)cc3)CC2)C(=O)c2ccccc21 [atovaquone]
assayed-system: Vero E6
readout-units: %
reported: 95.2
//
compound: COc1nccnc1NS(=O)(=O)c1ccc(N)cc1 [sulfametopyrazine]
assayed-system: Vero E6
readout-units: %
reported: 102
//
compound: Cc1cc(C(=O)Nc2cccc(C(=O)Nc3cccc(C(F)(F)F)c3)c2)on1
assayed-system: Vero E6
readout-units: %
reported: 100
//
compound: COc1ccc(C(=O)/C(Cc2cc(OC)c(OC)c(OC)c2)=C(\C(=O)O)c2ccc3c(c2)OCO3)cc1
assayed-system: Vero E6
readout-units: %
reported: 97.1
//
compound: CNC(=O)c1ccccc1Nc1cc(Nc2ccc(N3CCOCC3)cc2OC)ncc1C(F)(F)F [VS-4718]
assayed-system: Vero E6
readout-units: %
reported: 103
//
compound: O=C1c2ccccc2C(Cc2ccnc(F)c2)(Cc2ccnc(F)c2)c2ccccc21 [DMP-543]
assayed-system: Vero E6
readout-units: %
reported: 101
//
compound: COc1ccc(CNC(=O)Nc2ncc([N+](=O)[O-])s2)cc1
assayed-system: Vero E6
readout-units: %
reported: 106
//
compound: COC(=O)Nc1nc2cc(C(=O)c3cccs3)ccc2[nH]1 [nocodazole]
assayed-system: Vero E6
readout-units: %
reported: 105
//
compound: C=C1c2cccc(O)c2C(=O)C2=C(O)[C@]3(O)C(=O)C(C(N)=O)=C(O)[C@@H](N(C)C)[C@@H]3[C@@H](O)[C@H]12 [methacycline]
assayed-system: Vero E6
readout-units: %
reported: 70.6
//
compound: NCCCCCCCCCCNS(=O)(=O)c1cccc2c(Cl)cccc12 [A-7]
assayed-system: Vero E6
readout-units: %
reported: 97.3
//
compound: CC(=O)OCC(=O)[C@@]1(O)CC[C@H]2[C@@H]3CCC4=CC(=O)C=C[C@]4(C)[C@@]3(F)[C@@H](O)C[C@@]21C [isoflupredone-acetate]
assayed-system: Vero E6
readout-units: %
reported: 100
//
compound: CC(C)C[C@H](NC(=O)[C@H](Cc1ccccc1)NC(=O)c1cnccn1)B(O)O [bortezomib]
assayed-system: Vero E6
readout-units: %
reported: 111
//
compound: O=C(NCCN1CCN(c2ncccn2)CC1)C12CC3CC(CC(C3)C1)C2 [adatanserin]
assayed-system: Vero E6
readout-units: %
reported: 99.5
//
compound: CC(C)CC(NC(=O)OCC1c2ccccc2-c2ccccc21)C(=O)O (stereo in doubt)
assayed-system: Vero E6
readout-units: %
reported: 97.3
//
compound: C=CC(N)CCC(=O)O (stereo not given) [vigabatrin]
assayed-system: Vero E6
readout-units: %
reported: 96.5
